Read-out: 3-Hydroxy-3-Methylglutaryl-CoA Synthase 2 (HMGCS2), HMGCS2 (gene 3158)
assay_comment: LTEA_HepaRG_HMGCS2: Life Technologies and Expression Analysis (LTEA) Assay for 3-Hydroxy-3-Methylglutaryl-CoA Synthase 2 (HMGCS2) using HepaRG (AID 2283504)
assay_context: mRNA level, 48 h; actives raise or lower the signal
Activity calls are given as the source filed them. How the source made its calls: active means hit-call score of the fitted dose curve at least 0.9, where 1 is the maximum; inactive means score below 0.9.
Labels: True for active, False for inactive

1) CCOC(=O)C(C)(C)Oc1ccc(Cl)cc1 | True
2) CCCCCCC(=O)OCC | False
3) COc1cc(C=O)ccc1O | False
4) Cc1ccc2ncccc2c1 | False
5) FC(F)(F)C(F)(F)C(F)(F)C(F)(F)C(F)(F)C(F)(F)CCI | False
